Provenance of the data: patent EP4745135A1

We begin with a simple list: items and their reported inhibition at 0.5 µM.
TEST_TARGET: human Cereblon WT GST-tagged protein (Homo sapiens, UniProt Q96SW2)
Construct: purchased CISBIO 64BDCRBNPEH
Sequence (Q96SW2 whole entry): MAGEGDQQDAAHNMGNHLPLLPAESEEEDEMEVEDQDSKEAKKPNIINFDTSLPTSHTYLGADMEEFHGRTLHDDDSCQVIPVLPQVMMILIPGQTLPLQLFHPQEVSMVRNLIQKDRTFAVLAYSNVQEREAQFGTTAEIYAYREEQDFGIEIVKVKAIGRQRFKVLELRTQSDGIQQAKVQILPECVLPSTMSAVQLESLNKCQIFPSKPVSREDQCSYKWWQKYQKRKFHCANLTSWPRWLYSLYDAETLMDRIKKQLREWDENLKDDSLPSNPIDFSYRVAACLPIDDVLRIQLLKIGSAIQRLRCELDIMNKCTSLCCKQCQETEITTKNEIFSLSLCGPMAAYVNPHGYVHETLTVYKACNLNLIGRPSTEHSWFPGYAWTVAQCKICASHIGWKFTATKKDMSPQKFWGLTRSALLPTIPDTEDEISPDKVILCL
METHOD_DESCRIPTION: CRBN-binding affinity, HTRF (CEREBLON BINDING kit)
SETUP_CONDITIONS: read-out: Inhibition Rate at 0.5 µM (%)

- COMPOUND: "O=C1CCC(N2Cc3cc(CN4CC5CCC4CN5C(c4ccccc4)c4ccccc4)ccc3C2=S)C(=O)N1 (stereo not shown) [GT-07847]"
  inhibition at 0.5 µM: "53 to 60%"
- COMPOUND: "O=C1CCC(N2Cc3c(CN4CCN(c5nc(N6CCOCC6)c6sccc6n5)CC4)cccc3C2=S)C(=O)N1 (stereo not shown) [GT-09033]"
  inhibition at 0.5 µM: "60 to 80%"
- COMPOUND: "O=C1CCC(N2Cc3c(CN4CC=C(c5ncnc6sc7c(c56)CCCC7)CC4)cccc3C2=S)C(=O)N1 (stereo not shown) [GT-08962]"
  inhibition at 0.5 µM: "40 to 53%"
- COMPOUND: "O=C1CCC(N2Cc3cc(CN4CCN(c5ccc(Cl)c(Cl)c5)CC4)ccc3C2=S)C(=O)N1 (stereo not shown) [GT-08612]"
  inhibition at 0.5 µM: "30 to 40%"
